# system_under_test: hMRP5-Δ1-94-8xHis (human, UniProt O15440 95-1437, RED-tris-NTA 2nd Generation dye on the His tag)
# Sequence (O15440 95-1437, stated change not applied): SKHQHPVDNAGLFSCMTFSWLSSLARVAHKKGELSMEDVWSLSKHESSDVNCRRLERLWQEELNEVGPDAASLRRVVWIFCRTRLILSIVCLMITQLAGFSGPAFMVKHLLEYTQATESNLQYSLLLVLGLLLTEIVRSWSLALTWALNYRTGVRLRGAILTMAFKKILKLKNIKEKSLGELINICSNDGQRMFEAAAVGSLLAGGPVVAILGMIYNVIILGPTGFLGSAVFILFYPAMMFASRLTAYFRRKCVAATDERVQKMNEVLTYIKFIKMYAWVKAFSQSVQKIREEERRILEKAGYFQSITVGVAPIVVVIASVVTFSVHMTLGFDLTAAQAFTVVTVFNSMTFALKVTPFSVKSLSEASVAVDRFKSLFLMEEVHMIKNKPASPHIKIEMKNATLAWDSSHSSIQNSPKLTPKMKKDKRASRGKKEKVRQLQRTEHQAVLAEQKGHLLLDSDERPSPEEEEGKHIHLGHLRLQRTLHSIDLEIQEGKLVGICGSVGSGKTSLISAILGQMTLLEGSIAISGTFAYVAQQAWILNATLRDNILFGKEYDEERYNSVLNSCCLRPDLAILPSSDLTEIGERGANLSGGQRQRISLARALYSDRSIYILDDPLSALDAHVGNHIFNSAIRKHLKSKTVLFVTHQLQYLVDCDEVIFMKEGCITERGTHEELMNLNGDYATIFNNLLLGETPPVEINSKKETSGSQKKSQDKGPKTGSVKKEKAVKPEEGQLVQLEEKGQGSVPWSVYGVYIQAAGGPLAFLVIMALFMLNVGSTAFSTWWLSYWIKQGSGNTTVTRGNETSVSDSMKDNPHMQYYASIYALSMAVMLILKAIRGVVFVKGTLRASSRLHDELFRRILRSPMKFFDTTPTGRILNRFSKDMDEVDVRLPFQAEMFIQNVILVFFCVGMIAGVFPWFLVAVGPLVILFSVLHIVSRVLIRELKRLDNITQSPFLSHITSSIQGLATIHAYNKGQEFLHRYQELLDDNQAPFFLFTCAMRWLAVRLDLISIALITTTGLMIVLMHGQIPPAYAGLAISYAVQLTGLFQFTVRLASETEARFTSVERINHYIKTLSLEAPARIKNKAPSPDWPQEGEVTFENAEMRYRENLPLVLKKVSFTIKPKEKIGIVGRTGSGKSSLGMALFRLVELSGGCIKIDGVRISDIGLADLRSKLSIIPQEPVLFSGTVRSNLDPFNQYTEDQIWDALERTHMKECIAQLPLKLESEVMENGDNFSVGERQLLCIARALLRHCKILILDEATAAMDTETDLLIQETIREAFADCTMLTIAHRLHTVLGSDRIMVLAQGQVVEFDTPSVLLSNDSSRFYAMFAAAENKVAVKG
# test_method_notes: MST
Kindly apply the following: Criterion met if Kd is less than 20 µM, Criterion not met in every other case.

A selection of reference data follows.
CSKFRRTRPLECQDALETAARAEGLSLDASMHSQLRILDEC [MRP5 potential peptide inhibitor (M5PI)] ... Criterion met
DSKFRRTRPLECQDALETAARAEGLSLDASMHSQLRILDEE [Asp35-Glu75 peptide of hMRP5] ... Criterion not met
CQDALETAARAEGLSLDAS [Cys46-Ser64 peptide of hMRP5] ... Criterion not met
DIGKEYIIPSPGYRSVRERTS [Asp5-Ser25 peptide of hMRP5] ... Criterion not met

Now look at this one.
Data request: API: query returns whether the binder falls strictly under 20 µM in Kd. Query: RTRPLECQDALETAARAEGLSLDASMHSQLR [Arg40-Arg70 peptide of hMRP5]
Data returned: Criterion not met
